assaySystem: human GPR119 (Homo sapiens (Human), UniProt Q8TDV5)
Sequence (Q8TDV5 whole entry): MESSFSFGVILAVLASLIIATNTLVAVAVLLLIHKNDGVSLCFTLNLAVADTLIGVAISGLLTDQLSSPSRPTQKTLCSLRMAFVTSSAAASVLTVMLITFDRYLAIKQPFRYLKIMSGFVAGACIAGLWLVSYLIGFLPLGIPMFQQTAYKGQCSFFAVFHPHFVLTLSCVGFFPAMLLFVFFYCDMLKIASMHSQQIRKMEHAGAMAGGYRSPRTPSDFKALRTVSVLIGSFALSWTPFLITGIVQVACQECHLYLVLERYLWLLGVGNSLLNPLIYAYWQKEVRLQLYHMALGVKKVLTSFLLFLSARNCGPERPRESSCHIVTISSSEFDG
assayName: AlphaScreen cAMP assay in MIN6 cells stably transfected with human GPR119
statedConditions: Min-6/hGPR119 cells, 45 min incubation at room temperature
reportedProperty: EC50 (nM)

// solved cases for EC50 follow
# compound, assaySystem, EC50 / nM
data = [
    ("CC(C)(C)OC(=O)N1CCC(N(C(=O)c2ccc(-c3ccncc3C#N)c(F)c2)C2CC2)CC1 [Example 34]", "human GPR119 (Homo sapiens (Human), UniProt Q8TDV5)", 21),
    ("CCNC(=O)c1ccc(-c2ccc(C(=O)N(C3CC3)C3CCN(C(=O)OC(C)(C)C)CC3)cc2)cc1 [Example 103]", "human GPR119 (Homo sapiens (Human), UniProt Q8TDV5)", 51),
    ("Cc1noc(C)c1-c1ccc(C(=O)N(C2CC2)C2CCN(C(=O)OC(C)(C)C)CC2)cc1 [Example 95]", "human GPR119 (Homo sapiens (Human), UniProt Q8TDV5)", 85),
]

A: CCOC(=O)c1cnn(-c2ccc(C(=O)N(C3CC3)C3CCN(C(=O)OC(C)(C)C)CC3)cc2)c1C [Example 78]
B: COC(=O)N1CCC(N(C(=O)c2ccc(-c3cnco3)cc2)C2CC2)CC1 [Example 116]
C: CC(C)(C)OC(=O)N1CCC(N(C(=O)c2ccc(-c3ccc(S(N)(=O)=O)cc3)cc2)C2CC2)CC1 [Example 105]
Hello, I need these entries ordered by EC50, highest reading first. Thanks! Please list the labels in the order you were asked to rank them. B, C, A

I: COC(=O)c1ccc(-c2ccc(C(=O)N(C3CC3)C3CCN(C(=O)OC(C)(C)C)CC3)cc2)cn1 [Example 107]
II: CC(C)(C)OC(=O)N1CCC(N(C(=O)c2ccc(-c3ccc(C#N)s3)cc2)C2CC2)CC1 [Example 89]
III: CC(C)(C)OC(=O)N1CCC(N(C(=O)c2c(F)cc(-c3cnco3)cc2F)C2CC2)CC1 [Example 36]
IV: Cc1cn(-c2ccc(C(=O)N(C3CC3)C3CCN(C(=O)OC(C)(C)C)CC3)cc2)c(C)n1 [Example 55]
V: Cc1nnc(-c2ccc(C(=O)N(C3CC3)C3CCN(C(=O)OC(C)(C)C)CC3)cc2)o1 [Example 61]
Rank items: key EC50, increasing. Please list the labels in the order you were asked to rank them. II, I, III, V, IV
(II: 24 nM, I: 66 nM, III: 219 nM, V: 513 nM, IV: 927 nM)

P: CC(C)(C)OC(=O)N1CCC(N(C(=O)c2ccc(-c3ccc(CC#N)cc3)cc2)C2CC2)CC1 [Example 91]
Q: CC(C)(C)OC(=O)N1CCC(N(C(=O)c2ccc(-c3ccc(S(C)(=O)=O)cc3)cc2)C2CC2)CC1 [Example 93]
Lower value for measured EC50? Options: P , Q In your reply, give the label of the chosen option. P

P: CC(C)(C)OC(=O)N1CCC(N(C(=O)c2ccc(-c3ccc(C#N)c(F)c3)cc2)C2CC2)CC1 [Example 106]
Q: CC(C)(C)NS(=O)(=O)c1ccccc1-c1ccc(C(=O)N(C2CC2)C2CCN(C(=O)OC(C)(C)C)CC2)cc1 [Example 97]
Hi there! Just curious which has the higher EC50 between P and Q . In your reply, give the label of the chosen option. Q

Reference source for all entries: patent US9469631B2
